// provenance: patent US11345702B1

- targetEntity: 15-PGDH/HPGD (Homo sapiens (Human))
- experimentalDetails: hPGDH inhibitor screening biochemical assay
- testSettings: read-out: hPGDH: Average IC50
Reported IC50 by item:

In the examples that follow, each entry is paired with its recorded IC50.
compoundStructureString: N#Cc1ccc(-n2cnc3cc(C(=O)N4CC(Cl)C4)cnc32)cc1
assayReadout: IC50
experimentalValue: < 100 nM
//
compoundStructureString: CC1(C)NC(=O)N(c2ccc(-n3ccc4cc(C(=O)N5CCC(F)(F)CC5)cnc43)cn2)C1=O
assayReadout: IC50
experimentalValue: < 100 nM

Form entry - test system: 15-PGDH/HPGD (Homo sapiens (Human)); read-out: IC50; molecule: O=C(c1cnc2c(c1)ncn2-c1ccc(F)cc1)N1CCC(F)CC1
100 to 1000 nM

Form entry - test system: 15-PGDH/HPGD (Homo sapiens (Human)); read-out: IC50; molecule: COc1ccc(-n2nnc3cc(C(=O)N4CCCCC4)ccc32)cc1
< 100 nM

Form entry - test system: 15-PGDH/HPGD (Homo sapiens (Human)); read-out: IC50; molecule: O=C(c1cnc2c(ccn2-c2cnccn2)c1)N1CCCCC1
< 100 nM

Form entry - test system: 15-PGDH/HPGD (Homo sapiens (Human)); read-out: IC50; molecule: O=C(c1cnc2c(ccn2-c2ccc(-c3nnc(C(F)(F)F)[nH]3)nc2)c1)N1CCC(F)(F)CC1
< 100 nM

Form entry - test system: 15-PGDH/HPGD (Homo sapiens (Human)); read-out: IC50; molecule: O=C(O)c1ccc(-n2ccc3cc(C(=O)N4CCC(F)(F)CC4)cnc32)cc1
< 100 nM

Form entry - test system: 15-PGDH/HPGD (Homo sapiens (Human)); read-out: IC50; molecule: CS(=O)(=O)NC(=O)c1ccc(-n2ccc3cc(C(=O)N4CCC(F)(F)CC4)cnc32)cc1
< 100 nM

Form entry - test system: 15-PGDH/HPGD (Homo sapiens (Human)); read-out: IC50; molecule: Cn1cc(-n2cc(Cl)c3cc(C(=O)N4CCC(F)CC4)cnc32)cn1
< 100 nM

Form entry - test system: 15-PGDH/HPGD (Homo sapiens (Human)); read-out: IC50; molecule: COc1cccc(C(=O)Nc2ccc(C(=O)N3CCCCC3)cc2)c1
100 to 1000 nM

Form entry - test system: 15-PGDH/HPGD (Homo sapiens (Human)); read-out: IC50; molecule: COCCc1nc2cc(C(=O)N3CCCCC3)cnc2n1-c1ccc(OC)cc1
100 to 1000 nM

Form entry - test system: 15-PGDH/HPGD (Homo sapiens (Human)); read-out: IC50; molecule: N#Cc1cccc(-n2ccc3cc(C(=O)N4CCCCC4)cnc32)c1
< 100 nM

Form entry - test system: 15-PGDH/HPGD (Homo sapiens (Human)); read-out: IC50; molecule: O=C(c1ccc(CSc2ccccc2Cl)cc1)N1CCCCC1
< 100 nM

Form entry - test system: 15-PGDH/HPGD (Homo sapiens (Human)); read-out: IC50; molecule: O=C(NCCO)c1ccc(-n2ccc3cc(C(=O)N4CCC(F)(F)CC4)cnc32)cc1
< 100 nM

Form entry - test system: 15-PGDH/HPGD (Homo sapiens (Human)); read-out: IC50; molecule: CCOc1ccc(-n2ccc3cc(C(=O)N4CCCCC4)cnc32)cc1
< 100 nM

Form entry - test system: 15-PGDH/HPGD (Homo sapiens (Human)); read-out: IC50; molecule: COc1ccc(-n2ccc3c(C#N)c(C(=O)N4CCCCC4)cnc32)cc1
< 100 nM

Form entry - test system: 15-PGDH/HPGD (Homo sapiens (Human)); read-out: IC50; molecule: O=C(c1ccc2c(c1)CCCN2c1cccc(Cl)c1)N1CCCCC1
< 100 nM

Form entry - test system: 15-PGDH/HPGD (Homo sapiens (Human)); read-out: IC50; molecule: Cc1ccc(S(=O)(=O)n2ccc3cc(C(=O)N4CCCCC4)cnc32)cc1
≥ 1000 nM

====

- targetEntity: 15-PGDH/HPGD (Homo sapiens (Human), UniProt P15428)
- Sequence (P15428 whole entry): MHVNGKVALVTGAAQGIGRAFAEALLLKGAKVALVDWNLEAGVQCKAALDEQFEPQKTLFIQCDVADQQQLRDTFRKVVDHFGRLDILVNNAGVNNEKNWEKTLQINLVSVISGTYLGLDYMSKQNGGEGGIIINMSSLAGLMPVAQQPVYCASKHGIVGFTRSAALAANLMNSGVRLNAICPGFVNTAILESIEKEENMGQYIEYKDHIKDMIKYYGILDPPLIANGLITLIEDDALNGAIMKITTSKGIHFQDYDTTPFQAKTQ
- experimentalDetails: hPGDH inhibitor screening biochemical assay
- testSettings: read-out: hPGDH: Average IC50
Reported IC50 by item:

In the examples that follow, each entry is paired with its recorded IC50.
compoundStructureString: O=C(c1ccc2c(c1)ncn2-c1cccc(Cl)c1)N1CCC(O)CC1
IC50: 100 to 1000 nM
//
compoundStructureString: Cc1nc(-c2cncc(-n3ccc4cc(C(=O)N5CCC(F)(F)CC5)cnc43)c2)no1
IC50: < 100 nM
//
compoundStructureString: CC(C)(O)C#Cc1nc2cc(C(=O)N3CCC(F)(F)CC3)cnc2n1-c1ccc(C#N)cc1
IC50: 100 to 1000 nM

Could you share which IC50 value was measured for O=C(NC1CC1)c1ccc2c(c1)ncn2-c1cccc(Cl)c1 ?
100 to 1000 nM

Could you share which IC50 value was measured for N/C(=N\O)c1ccc(-n2ccc3cc(C(=O)N4CCCCC4)cnc32)cc1 ?
< 100 nM

====

- experimentalDetails: Liver microsome stability assay (MLM)
- Type: in vitro ADME
- testSettings: mouse liver microsomes
assayReadout: MLM + NADPH (% remaining at 45 min) (%)

In the examples that follow, each entry is paired with its recorded MLM + NADPH (% remaining at 45 min).
compoundStructureString: CCC(CC)NC(=O)c1ccc(-n2ccc3cc(C(=O)N4CCC(F)(F)CC4)cnc32)cn1
assayReadout: MLM + NADPH (% remaining at 45 min)
experimentalValue: 25

compoundStructureString: O=C(NC1(C(=O)O)CC1)c1ccc(-n2ccc3cc(C(=O)N4CCC(F)(F)CC4)cnc32)cc1
assayReadout: MLM + NADPH (% remaining at 45 min)
experimentalValue: 97

1 = NC(=O)c1ccc(-n2ccc3cc(C(=O)N4CCCCC4)cnc32)cn1
2 = O=C(c1cnc2c(ccn2-c2ccc(-c3nn[nH]n3)cc2)c1)N1CCC(F)(F)CC1
Identify the entry with the smaller MLM + NADPH (% remaining at 45 min): 1 or 2 . Your choice should be expressed through its label.
1
(1: 41%, 2: 110%)

a = O=C(Nc1cc(C2CC2)[nH]n1)c1cccc(-n2ccc3cc(C(=O)N4CCC(F)(F)CC4)cnc32)c1
b = CCC(CC)NC(=O)c1cncc(-n2ccc3cc(C(=O)N4CCC(F)(F)CC4)cnc32)c1
Identify the entry with the smaller MLM + NADPH (% remaining at 45 min): a or b . Your choice should be expressed through its label.
a

P = O=C(c1cnc2c(ccn2-c2cncc(N3CCOC3=O)c2)c1)N1CCC(F)(F)CC1
Q = O=C(c1cnc2c(c1)ncn2-c1cccc(Cl)c1)N1CCCCC1
Identify the entry with the smaller MLM + NADPH (% remaining at 45 min): P or Q . Your choice should be expressed through its label.
Q
(Q: 30%, P: 83%)

====

Reported pIC50 by item:
- targetEntity: 15-PGDH/HPGD (Homo sapiens (Human))
- experimentalDetails: hPGDH inhibitor screening biochemical assay
- testSettings: read-out: hPGDH: Average IC50
- Description: A hydroxyprostaglandin dehydrogenase inhibition screening biochemical assay can be performed to assess the synthesized inhibitors provided herein. Provided herein is an exemplary biochemical assay for hPGDH inhibitor screening. […]
pIC50: −log10 of the molar value.

Could you share which pIC50 value was measured for CS(=O)(=O)NCCNC(=O)c1ccc(-n2ccc3cc(C(=O)N4CCC(F)(F)CC4)cnc32)cc1 ?
> 7.00

Could you share which pIC50 value was measured for O=C(c1ccc(COc2ccccc2Br)cc1)N1CCCCC1 ?
> 7.00

====

- experimentalDetails: Solubility at pH 7.4
- Type: physicochemical
- testSettings: pH 7.4
assayReadout: Solubility: Solubility at pH 7.4 (μM)

compoundStructureString: O=C(c1cnc2c(c1)ncn2-c1cccc(Cl)c1)N1CCCCC1
assayReadout: Solubility: Solubility at pH 7.4 (μM)
experimentalValue: 150
--
compoundStructureString: COc1ccc(-n2cnc3cc(C(=O)N4CCC(F)CC4)cnc32)cc1
assayReadout: Solubility: Solubility at pH 7.4 (μM)
experimentalValue: 140
--
compoundStructureString: COc1ccc(-n2cnc3cc(C(=O)N4CCC(F)(F)CC4)cnc32)cc1
assayReadout: Solubility: Solubility at pH 7.4 (μM)
experimentalValue: 140
--
compoundStructureString: COc1ccc(-n2cnc3cc(C(=O)N4CCCCC4)cnc32)cc1
assayReadout: Solubility: Solubility at pH 7.4 (μM)
experimentalValue: 160

====

- experimentalDetails: Liver microsome stability assay (RLM)
- Type: in vitro ADME
- testSettings: rat liver microsomes
assayReadout: RLM + NADPH (% remaining at 45 min) (%)

In the examples that follow, each entry is paired with its recorded RLM + NADPH (% remaining at 45 min).
compoundStructureString: COc1ccc(-n2c(C)nc3cc(C(=O)N4CCCCC4)cnc32)cc1
assayReadout: RLM + NADPH (% remaining at 45 min)
experimentalValue: 78
//
compoundStructureString: COc1ccc(-n2c(CCC(F)(F)F)nc3cc(C(=O)N4CCCCC4)cnc32)cc1
assayReadout: RLM + NADPH (% remaining at 45 min)
experimentalValue: 60
//
compoundStructureString: Cc1cncc(-n2cc(Cl)c3cc(C(=O)N4CCC(F)CC4)cnc32)n1
assayReadout: RLM + NADPH (% remaining at 45 min)
experimentalValue: 33
//
compoundStructureString: O=C(c1cnc2c(c1)ncn2-c1ccc(OC(F)F)cc1)N1CCCCC1
assayReadout: RLM + NADPH (% remaining at 45 min)
experimentalValue: 74
//
compoundStructureString: O=C(c1cnc2c(ccn2-c2ccc3c(c2)OC(F)(F)O3)c1)N1CCCCC1
assayReadout: RLM + NADPH (% remaining at 45 min)
experimentalValue: 29

P = COc1ccc(-n2ncc3cc(C(=O)N4CCCCC4)ccc32)cc1
Q = O=C(c1cnc2c(c1)ncn2-c1ccc(OC(F)(F)F)cc1)N1CCCCC1
Identify the entry with the smaller RLM + NADPH (% remaining at 45 min): P or Q . Your choice should be expressed through its label.
P

P = CCOc1ccc(-n2cnc3cc(C(=O)N4CCCCC4)cnc32)cc1
Q = CCC(CC)n1cnc2cc(C(=O)N3CCCCC3)ccc21
Identify the entry with the smaller RLM + NADPH (% remaining at 45 min): P or Q . Your choice should be expressed through its label.
Q
